system.under.test: mMC3R (Mus musculus)
Sequence (P33033 whole entry): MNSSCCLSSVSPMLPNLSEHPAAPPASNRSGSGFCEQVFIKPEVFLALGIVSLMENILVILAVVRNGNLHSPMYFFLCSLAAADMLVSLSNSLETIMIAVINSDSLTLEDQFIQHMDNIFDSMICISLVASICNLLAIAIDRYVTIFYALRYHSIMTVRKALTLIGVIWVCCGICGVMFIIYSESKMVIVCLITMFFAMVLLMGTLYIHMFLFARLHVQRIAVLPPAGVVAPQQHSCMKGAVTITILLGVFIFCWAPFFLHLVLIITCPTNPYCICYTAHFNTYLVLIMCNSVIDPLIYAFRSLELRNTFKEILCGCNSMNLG
method.description: AlphaScreen cAMP agonist assay, HEK293 cells stably expressing mMC3R
Assay type: cell-based
condition.details: at 100 μM
Square brackets hold non-standard residues; d marks the D form. Peptide text beside a SMILES is read from it. dPhe(4-I) = N[C@H](Cc1ccc(I)cc1)C(=O)O; 2Nal = N[C@@H](Cc1ccc2ccccc2c1)C(=O)O; d2Nal = N[C@H](Cc1ccc2ccccc2c1)C(=O)O
reported.metric: mMC3R percent maximal stimulatory response (compared to NDP-MSH) (% @100μM)
Answers are plain numbers, in % @100μM.

Consider the following illustrative entries.
CC(=O)N[C@H](Cc1ccc2ccccc2c1)C(=O)N[C@@H](CCCNC(=N)N)C(=O)N[C@@H](Cc1ccc2ccccc2c1)C(=O)N[C@H](Cc1ccc2ccccc2c1)C(N)=O [Peptide 23, Ac-DNal(2’)-Arg-Nal(2’)-DNal(2’)-NH2] (Ac-[d2Nal]R[2Nal][d2Nal]-NH2) : 30
CC(=O)N[C@H](Cc1ccc(I)cc1)C(=O)N[C@@H](CCCNC(=N)N)C(=O)N[C@@H](Cc1c[nH]c2ccccc12)C(=O)N[C@@H](CCCNC(=N)N)C(N)=O [Peptide 42, Ac-DPhe(pI)-Arg-Trp-Arg-NH2] (Ac-[dPhe(4-I)]RWR-NH2) : 25
CC(=O)N[C@H](Cc1ccc2ccccc2c1)C(=O)N[C@H](Cc1ccc2ccccc2c1)C(=O)N[C@H](Cc1ccc2ccccc2c1)C(=O)N[C@@H](CCCNC(=N)N)C(N)=O [Peptide 3, Ac-DNal(2’)-DNal(2’)-DNal(2’)-Arg-NH2] : 35

# context switch: different molecule, same mMC3R percent maximal stimulatory response (compared to NDP-MSH)
Per the record, CC(=O)N[C@H](Cc1ccc(I)cc1)C(=O)N[C@H](Cc1ccc2ccccc2c1)C(=O)N[C@@H](Cc1ccc2ccccc2c1)C(=O)N[C@H](CCCCN)C(N)=O [Peptide 34, Ac-DPhe(pI)-DNal(2’)-Nal(2’)-DLys-NH2] (Ac-[dPhe(4-I)][d2Nal][2Nal][dK]-NH2) has mMC3R percent maximal stimulatory response (compared to NDP-MSH) of 20
